Entries and their measured T/C follow.
Test system: MDA-MB-231
Assay: Cytostatic effect on hormone-independent MDA-MB 231 human breast cancer cell proliferation at 1x10E-5 M
Assay type: functional
Could you give me the number in %? Just the number is fine.

Item under review: CCC1Cc2cc(OC(C)=O)ccc2-c2cc3ccc(OC(C)=O)cc3n21 (configuration not stated) . Reported T/C? 11

For CC/C(=C(\c1ccccc1)c1ccc(OCCN(C)C)cc1)c1ccccc1 [TAMOXIFEN] , what is its reported T/C? 94

Request the reported T/C associated with CC(=O)Oc1ccc2c(c1)CC(C)n1c-2cc2cc(OC(C)=O)ccc21 (configuration not stated) 5

Recorded T/C of CCC1Cn2c(cc3cc(OC(C)=O)ccc32)-c2ccc(OC(C)=O)cc21 (configuration not stated) , please. 45

For the compound shown here, CCC1Cc2cc(OC(C)=O)c(OC(C)=O)cc2-c2cc3cc(OC(C)=O)ccc3n21 (configuration not stated) , give the reported T/C. 51

Item under review: CCC1Cc2cc(OC(C)=O)ccc2-c2c(C=O)c3cc(OC(C)=O)ccc3n21 (configuration not stated) . Reported T/C? 14

Switching to the query record.
Fill blank: measured T/C of the compound CCC1Cc2cc(OC(C)=O)ccc2-c2cc3cc(OC(C)=O)ccc3n21 (configuration not stated) is ____. 4

----------
T/C: recorded values
System: MCF7
Assay: Effect on hormone-dependent MCF-7 human breast cancer cell proliferation at 1x10E-5 M
Format: functional
Value expressed in %; do not type the unit.

Here are 4 molecules together with their reported answers.
So what's the measured T/C for this one? "CC/C(=C(\c1ccccc1)c1ccc(OCCN(C)C)cc1)c1ccccc1" 17

Give the measured T/C of CCC1Cc2cc(OC(C)=O)ccc2-c2cc3cc(OC(C)=O)ccc3n21 (stereo not given) . 8

Param item = CCC1Cn2c(cc3cc(OC(C)=O)ccc32)-c2ccc(OC(C)=O)cc21 (stereo not given) ; retrieve measured T/C. 31

Record request: T/C value, item CCC1Cc2cc(OC(C)=O)ccc2-c2cc3ccc(OC(C)=O)cc3n21 (stereo not given) 6

Next item in the queue.
Endpoint output: T/C of CCC1Cc2cc(OC(C)=O)ccc2-c2c(C=O)c3cc(OC(C)=O)ccc3n21 (stereo not given) . Value? 13

----------
Form field: Effect (one value per entry).
Target: Estrogen receptor (Mus musculus) (UniProt O08537+P19785)
Sequence (O08537 whole entry, looked up): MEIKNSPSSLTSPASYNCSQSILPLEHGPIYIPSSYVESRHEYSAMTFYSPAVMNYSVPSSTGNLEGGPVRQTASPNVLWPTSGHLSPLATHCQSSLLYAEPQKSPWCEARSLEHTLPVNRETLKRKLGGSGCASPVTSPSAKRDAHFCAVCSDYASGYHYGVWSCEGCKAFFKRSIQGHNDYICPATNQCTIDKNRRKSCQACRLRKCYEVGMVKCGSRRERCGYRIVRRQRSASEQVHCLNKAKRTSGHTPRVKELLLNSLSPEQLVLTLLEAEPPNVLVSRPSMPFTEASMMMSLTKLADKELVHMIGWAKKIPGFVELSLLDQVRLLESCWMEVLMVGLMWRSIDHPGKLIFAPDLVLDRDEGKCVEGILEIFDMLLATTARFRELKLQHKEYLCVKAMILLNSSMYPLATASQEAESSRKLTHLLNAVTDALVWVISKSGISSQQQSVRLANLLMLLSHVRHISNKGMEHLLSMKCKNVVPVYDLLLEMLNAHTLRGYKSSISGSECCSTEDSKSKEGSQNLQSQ
Sequence (P19785 whole entry, looked up): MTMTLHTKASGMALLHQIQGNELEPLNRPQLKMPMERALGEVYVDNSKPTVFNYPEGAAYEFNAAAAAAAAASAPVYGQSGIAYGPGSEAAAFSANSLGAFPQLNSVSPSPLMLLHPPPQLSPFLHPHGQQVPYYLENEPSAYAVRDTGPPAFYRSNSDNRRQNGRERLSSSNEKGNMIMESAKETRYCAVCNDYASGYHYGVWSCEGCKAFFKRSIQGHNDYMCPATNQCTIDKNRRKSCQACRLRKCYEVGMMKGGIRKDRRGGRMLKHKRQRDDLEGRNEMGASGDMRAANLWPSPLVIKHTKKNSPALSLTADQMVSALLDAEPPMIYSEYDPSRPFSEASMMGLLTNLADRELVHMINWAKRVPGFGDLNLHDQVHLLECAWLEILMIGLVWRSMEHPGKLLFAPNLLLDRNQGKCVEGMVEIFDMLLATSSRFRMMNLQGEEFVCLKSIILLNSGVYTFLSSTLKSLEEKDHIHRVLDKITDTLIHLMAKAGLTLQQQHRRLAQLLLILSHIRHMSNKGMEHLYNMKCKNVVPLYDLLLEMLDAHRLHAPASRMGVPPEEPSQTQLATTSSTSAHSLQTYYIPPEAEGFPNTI
Assay: Estrogenic activity in uterotrophic assay in immature mice at 250 ug subcutaneous dose
Type: functional
The reply should be a number, written without any unit.

Example results:
I am curious: what Effect value has been reported for CCC1Cc2cc(OC(C)=O)ccc2-c2cc3cc(OC(C)=O)ccc3n21 (centres undefined) ? 42.6

Which Effect value is on record for CCC1Cc2cc(OC(C)=O)ccc2-c2cc3ccc(OC(C)=O)cc3n21 (centres undefined) ? 48.2

Consider the compound shown here: CCC1Cn2c(cc3cc(OC(C)=O)ccc32)-c2ccc(OC(C)=O)cc21 (centres undefined) What is its recorded Effect? 42.7

---
Param item = CC(=O)Oc1ccc2c(c1)CC(C)n1c-2cc2cc(OC(C)=O)ccc21 (centres undefined) ; retrieve measured Effect. 61.1

----------
Biological target: Estrogen receptor (Mus musculus) (UniProt O08537+P19785)
Test: Estrogenic activity in uterotrophic assay in immature mice at 2 ug subcutaneous dose
Type: functional
assay.metric: Effect
// keep it numeric: no unit symbol after the value

Given the compound CC(=O)Oc1ccc2c(c1)CC(C)n1c-2cc2cc(OC(C)=O)ccc21 (stereo unspecified) , what is its reported Effect? 21.2

Item under review: CCC1Cc2cc(OC(C)=O)ccc2-c2cc3cc(OC(C)=O)ccc3n21 (stereo unspecified) . Reported Effect? 18.5

Param item = CCC1Cn2c(cc3cc(OC(C)=O)ccc32)-c2ccc(OC(C)=O)cc21 (stereo unspecified) ; retrieve measured Effect. 16.8

Need Effect, item CCC1Cc2cc(OC(C)=O)ccc2-c2c(C=O)c3cc(OC(C)=O)ccc3n21 (stereo unspecified) 14.5

May I ask what Effect has been recorded for CCC1Cc2cc(OC(C)=O)ccc2-c2cc3ccc(OC(C)=O)cc3n21 (stereo unspecified) ? 11.5

New cases:
# Effect lookup, item CCC1Cc2cc(OC(C)=O)c(OC(C)=O)cc2-c2cc3cc(OC(C)=O)ccc3n21 (stereo unspecified) 21.2
